- Measured On: T1, recombinant human Aggrecan G1-IGD-G2 (human, UniProt P16112 20-676)
- T1 construct: Only the G1-IGD-G2 region was used (R&D Systems 1220-PG is named for the immunogen); also called Hu G1-IGD-G2
- Assay Text: periplasmic extract ELISA
Assay Endpoint: OD 450 nm (OD 450 nm)
Numbers only, in OD 450 nm.

Example binders with recorded OD 450 nm:
{"Binder": "C0101PMP608A05 (VHH, Tested as E. coli periplasmic extract; not shown: FLAG3 and His6 tags (phagemid pAX212)) VHH: DVQLVESGGGLVQPGGSLRLSCAASGRTFSTYTMGWFRQAPGKEREFVAAISWSGGTTYYADSVKGRFTISRDNSKNTVYLQMNSLRPEDTAVYYCAARPRYYYYSLYSYDYWGQGTLVTVSS", "Assay Endpoint": "OD 450 nm", "Value Reported": 2.33}
{"Binder": "C0101PMP114F08 (VHH, Tested as E. coli periplasmic extract; not shown: FLAG3 and His6 tags (phagemid pAX212)) VHH: EVQLVESGGGLVQAGGSLRLSCAASGSTFIINVVRWYRRTPGKQRELVATISSGGNANYVDSVRGRFSISRDGAKNAVDLQMNGLKPEDTAVYYCNVPTTHYGGVYYGPYWGQGTQVTVSS", "Assay Endpoint": "OD 450 nm", "Value Reported": 2.38}
{"Binder": "C0101PMP117D05 (VHH, Tested as E. coli periplasmic extract; not shown: FLAG3 and His6 tags (phagemid pAX212)) VHH: KVQLVESGGGLVQAGGSLRLSCAASRRTFNMMGWFRQAPGKEREFVAYITWNGGDTRYAESVKGRFTVSRDDVKNTMALQMNRLDPLDTAVYYCGVRIHGSNWSTKADDYDNWGQGTQVTVSS", "Assay Endpoint": "OD 450 nm", "Value Reported": 2.25}
{"Binder": "C0101PMP112A03 (VHH, Tested as E. coli periplasmic extract; not shown: FLAG3 and His6 tags (phagemid pAX212)) VHH: EVQLVESGGGLVQPGGSLRLSCAASGSIFSNRFMYWYRQAPGKQRELVASITLSGSTNYADSVKGRFTISRDNAKNTVYLQMNSLKPEDTAVYYCNTFLQNSFYWGQGTQVTVSS", "Assay Endpoint": "OD 450 nm", "Value Reported": 2.51}

Look at each binder and report its OD 450 nm.
1. C0101PMP604F02 (VHH, Tested as E. coli periplasmic extract; not shown: FLAG3 and His6 tags (phagemid pAX212)) VHH: DVQLVESGGGLVQPGGSLRLSCAASGRTFSSYTMGWFRQAPGKEREFVAAISWSGGRTYYADSVKGRFTISRDNSKNTVYLQMNSLRPEDTAVYYCAAYRRRRASSNRGLWDYWGQGTLVTVSS
2. C0101PMP604G09 (VHH, Tested as E. coli periplasmic extract; not shown: FLAG3 and His6 tags (phagemid pAX212)) VHH: DVQLVESGGGLVQPGGSLRLSCVASGRTFSSYAMGWFRQAPGKEREFVAAITWSSATTYYADSVKGRFTISRDNSKNTVYLQMNSLRPEDTAVYYCAAARIPVGRRSENWDYWGQGTLVTVSS
3. C0101PMP113A01 (VHH, Tested as E. coli periplasmic extract; not shown: FLAG3 and His6 tags (phagemid pAX212)) VHH: EVQLVESGGGLVQPGGSLRLSCSASGFTFSGSWMFWVRQAPGKDYEWVASINSSGGRTYYDDSVKGRFTISRDSAKNTLYLEMNNLKPEDTALYFCARSPRVGSWGQGTQVTVSS
4. C0101PMP606A07 (VHH, Tested as E. coli periplasmic extract; not shown: FLAG3 and His6 tags (phagemid pAX212)) VHH: DVQLVESGGGLVQPGGSLRLSCVASGRTFSIYGMGWFRQAPGKEREFVAAINGGSRTYYADSVKGRFTISRDNSKNTVYLQMNSLRPEDTAVYYCAADRSGYGTSLDWWYDYWGQGTLVTVSS
5. C0101PMP609C09 (VHH, Tested as E. coli periplasmic extract; not shown: FLAG3 and His6 tags (phagemid pAX212)) VHH: DVQLVESGGGLVQPGGSLRLSCAASGTIFSINVMGWYRQAPGKEREFVAAITTGGRTNYADSVKGRFTISRDNSKNTVYLQMNSLRPEDTAVYYCNAEVTTGWVGYSWYDYWGQGTMVTVSS

[2.41, 2.41, 2.56, 0.71, 2.1]

Lab book: OD 450 nm of C0101PMP117G09 (VHH, Tested as E. coli periplasmic extract; not shown: FLAG3 and His6 tags (phagemid pAX212)) VHH: EVQLVESGGGSALPGGSLRLSCAASGITFSSRYMRWYRQAPGRQRELVAAISSGGRTDYVDSVRGRFTLSINNAKNTVYLQMNDLKPEDTAVYYCYRPRMYVDGTYEKELWGQGTLVTVSS noted as 2.21

Data provenance: patent US20200140532A1
